test system: HT-29; test: Inhibitor activity against HT-29 (Human colon carcinoma)cell line with varying concentration of the drug for 72 hrs; assay type: functional; conditions: HT-29, 72 h
Metric Name: GI50 (µM)

Please review the entries below; each comes with its answer.
molecule=CCCCCCCCCCCCCCCCOC[C@H](CO[C@H]1O[C@@H](CO)[C@@H](O)[C@H](O)[C@H]1OC)OC metric_name=GI50 test_value=20
molecule=CCCCCCCCCCCCCCCCOC[C@H](CO[C@@H]1C[C@@H](O)[C@H](O)[C@H](CO)O1)OC metric_name=GI50 test_value=29.6

a. CCCCCCCCCCCCCCCCOC[C@H](CO[C@@H]1O[C@@H](CO)[C@@H](O)[C@H](O)[C@@H]1O)OC
b. CCCCCCCCCCCCCCCCCCOC[C@H](COP(=O)([O-])OCC[N+](C)(C)C)OC [(R)-EDELFOSINE]
c. CCCCCCCCCCCCCCCCOC[C@H](CO[C@H]1C[C@@H](O)[C@H](O)[C@H](CO)O1)OC
Incoming: Ascending by GI50, please. Show the ranking through the labels, in the order asked for.
Outgoing: b, c, a
(b: 2.2 µM, c: 7.59 µM, a: 23.2 µM)

====

test system: MCF7; experiment: Inhibitor activity against MCF-7(Human breast carcinoma)cell line with varying concentration of the drug for 72 hrs; format: functional; conditions: MCF7, 72 h
Metric Name: GI50 (µM)

molecule=CCCCCCCCCCCCCCCCOC[C@H](CO[C@H]1O[C@@H](CO)[C@@H](O)[C@H](O)[C@H]1OC)OC metric_name=GI50 measure_unit=µM test_value=18.2

a. CCCCCCCCCCCCCCCCOC[C@H](CO[C@@H]1O[C@@H](CO)[C@@H](O)[C@H](O)[C@@H]1O)OC
b. CCCCCCCCCCCCCCCCCCOC[C@H](COP(=O)([O-])OCC[N+](C)(C)C)OC [(R)-EDELFOSINE]
Incoming: For a and b , which recorded GI50 is lower? # answer = label of selected item
Outgoing: b

====

test system: L1210; test: Inhibitor activity against L1210 (murine leukemia )cell line with varying concentration of the drug for 72 hrs; format: functional; settings: Mus musculus, L1210, 72 h
Metric Name: GI50 (µM)

molecule=CCCCCCCCCCCCCCCCOC[C@H](CO[C@@H]1O[C@@H](CO)[C@@H](O)[C@H](O)[C@@H]1O)OC test_value=16.2
molecule=CCCCCCCCCCCCCCCCOC[C@H](CO[C@H]1C[C@@H](O)[C@H](O)[C@H](CO)O1)OC test_value=7.02
molecule=CCCCCCCCCCCCCCCCOC[C@H](CO[C@@H]1C[C@@H](O)[C@H](O)[C@H](CO)O1)OC test_value=18.8

I. CCCCCCCCCCCCCCCCOC[C@H](CO[C@H]1O[C@@H](CO)[C@@H](O)[C@H](O)[C@H]1OC)OC
II. CCCCCCCCCCCCCCCCCCOC[C@H](COP(=O)([O-])OCC[N+](C)(C)C)OC [(R)-EDELFOSINE]
Incoming: For I and II , which recorded GI50 is lower? # answer = label of selected item
Outgoing: II

====

tested on: MCF7; assay: Inhibitor activity against MCF-7(Human breast carcinoma)cell line with varying concentration of the drug for 72 hrs; assay type: functional; conditions: MCF7, 72 h
Metric Name: GI50 (µM)

mol=CCCCCCCCCCCCCCCCOC[C@H](CO[C@@H]1O[C@@H](CO)[C@@H](O)[C@H](O)[C@@H]1OC)OC target_entity=MCF7 metric_name=GI50 measure_unit=µM test_value=23.1

A. CCCCCCCCCCCCCCCCOC[C@H](CO[C@@H]1C[C@@H](O)[C@H](O)[C@H](CO)O1)OC
B. CCCCCCCCCCCCCCCCOC[C@H](CO[C@H]1C[C@@H](O)[C@H](O)[C@H](CO)O1)OC
Incoming: Which of the two items, A and B , has the greater recorded GI50? # answer = label of selected item
Outgoing: A
(A: 24.4 µM, B: 6.93 µM)

Hey, just so you know, these numbers are from ChEMBL document CHEMBL1129274.
